# Test system: HCC-44
# procedure_text: relative viability (nuclei count vs DMSO), 5 days (fraction); higher = more cells survive
# condition_context: first compound 0.8 µM
observable: relative viability
One number for each entry.

Example entries and their recorded answers appear below.
compound	relative viability
Nc1cccc2c1CN(C1CCC(=O)NC1=O)C2=O (centres undefined) [Lenalidomide] + CC1(C)CCC(c2ccc(Cl)cc2)=C(CN2CCN(c3ccc(C(=O)NS(=O)(=O)c4ccc(N[C@H](CCN5CCOCC5)CSc5ccccc5)c(S(=O)(=O)C(F)(F)F)c4)cc3)CC2)C1 [Navitoclax] (partner 0.5 µM)	0.75
Nc1cccc2c1CN(C1CCC(=O)NC1=O)C2=O (centres undefined) [Lenalidomide] + CC(=O)c1c(C)c2cnc(Nc3ccc(N4CCNCC4)cn3)nc2n(C2CCCC2)c1=O [Palbociclib] (partner 0.5 µM)	0.785
Nc1cccc2c1CN(C1CCC(=O)NC1=O)C2=O (centres undefined) [Lenalidomide] + CC(C)C[C@H](NC(=O)[C@H](Cc1ccccc1)NC(=O)c1cnccn1)B(O)O [Bortezomib] (partner 0.002 µM)	0.701

Let us examine a further case.
Request the reported relative viability associated with Nc1cccc2c1CN(C1CCC(=O)NC1=O)C2=O (centres undefined) [Lenalidomide] + O=C(CCCCCCC(=O)Nc1ccccc1)NO [Vorinostat] (partner 1 µM) 0.926

====

# System: HARA
# procedure_text: relative viability (nuclei count vs DMSO), 5 days (fraction); higher = more cells survive
# condition_context: first compound 0.02 µM
observable: relative viability
Answers are plain numbers.

Example entries and their recorded answers appear below.
molecule	assay_value
CCNC(=O)c1noc(-c2cc(C(C)C)c(O)cc2O)c1-c1ccc(CN2CCOCC2)cc1 [Luminespib] + Nc1nc2[nH]cc(CCc3ccc(C(=O)N[C@@H](CCC(=O)O)C(=O)O)cc3)c2c(=O)[nH]1 [Pemetrexed] (partner 0.2 µM)	0.273
CCNC(=O)c1noc(-c2cc(C(C)C)c(O)cc2O)c1-c1ccc(CN2CCOCC2)cc1 [Luminespib] + Cc1nc(Nc2ncc(C(=O)Nc3c(C)cccc3Cl)s2)cc(N2CCN(CCO)CC2)n1 [Dasatinib] (partner 0.075 µM)	0.205
CCNC(=O)c1noc(-c2cc(C(C)C)c(O)cc2O)c1-c1ccc(CN2CCOCC2)cc1 [Luminespib] + Nc1ncn([C@H]2C[C@H](O)[C@@H](CO)O2)c(=O)n1 [Decitabine] (partner 2 µM)	0.532

Let us examine a further case.
Request the reported relative viability associated with CN1CCN(CCOc2cc(OC3CCOCC3)c3c(Nc4c(Cl)ccc5c4OCO5)ncnc3c2)CC1 [Saracatinib] + Cc1nc(Nc2ncc(C(=O)Nc3c(C)cccc3Cl)s2)cc(N2CCN(CCO)CC2)n1 [Dasatinib] (partner 0.075 µM) 0.225

====

# System: HARA
# procedure_text: relative viability (nuclei count vs DMSO), 5 days (fraction); higher = more cells survive
# condition_context: first compound 0.003162 µM
observable: relative viability
Give bare numbers.

molecule	system_name	relative viability
Cc1cn(-c2cc(NC(=O)c3ccc(C)c(Nc4nccc(-c5cccnc5)n4)c3)cc(C(F)(F)F)c2)cn1 [Nilotinib] + C[C@]1(O)C[C@@H](c2nc(-c3ccc4ccc(-c5ccccc5)nc4c3)c3c(N)nccn32)C1 [Linsitinib] (partner 1 µM)	HARA	1.37

Let us examine a further case.
Request the reported relative viability associated with Cc1cn(-c2cc(NC(=O)c3ccc(C)c(Nc4nccc(-c5cccnc5)n4)c3)cc(C(F)(F)F)c2)cn1 [Nilotinib] + CS(=O)(=O)N1CCN(Cc2cc3nc(-c4cccc5[nH]ncc45)nc(N4CCOCC4)c3s2)CC1 [Pictilisib] (partner 1 µM) 0.307

====

# Tested on: NCI-H1734
# procedure_text: relative viability (nuclei count vs DMSO), 5 days (fraction); higher = more cells survive
# condition_context: first compound 0.002 µM
observable: relative viability
Numbers only.

Example entries and their recorded answers appear below.
molecule	observable	assay_value
CCNC(=O)c1noc(-c2cc(C(C)C)c(O)cc2O)c1-c1ccc(CN2CCOCC2)cc1 [Luminespib] + Cc1cc(Nc2cc(N3CCN(C)CC3)nc(Sc3ccc(NC(=O)C4CC4)cc3)n2)n[nH]1 [Tozasertib] (partner 0.1 µM)	relative viability	0.248
CCNC(=O)c1noc(-c2cc(C(C)C)c(O)cc2O)c1-c1ccc(CN2CCOCC2)cc1 [Luminespib] + O=C(c1cc(Cc2n[nH]c(=O)c3ccccc23)ccc1F)N1CCN(C(=O)C2CC2)CC1 [Olaparib] (partner 8 µM)	relative viability	0.646
CCNC(=O)c1noc(-c2cc(C(C)C)c(O)cc2O)c1-c1ccc(CN2CCOCC2)cc1 [Luminespib] + CC(C)C[C@H](NC(=O)[C@H](Cc1ccccc1)NC(=O)c1cnccn1)B(O)O [Bortezomib] (partner 0.002 µM)	relative viability	1.06

Report relative viability for each item below.
1. CCNC(=O)c1noc(-c2cc(C(C)C)c(O)cc2O)c1-c1ccc(CN2CCOCC2)cc1 [Luminespib] + N=C(N)NC(=N)NCCc1ccccc1 [Phenformin] (partner 250 µM)
2. CCNC(=O)c1noc(-c2cc(C(C)C)c(O)cc2O)c1-c1ccc(CN2CCOCC2)cc1 [Luminespib] + O=C(CCCCCCC(=O)Nc1ccccc1)NO [Vorinostat] (partner 1 µM)
3. CCNC(=O)c1noc(-c2cc(C(C)C)c(O)cc2O)c1-c1ccc(CN2CCOCC2)cc1 [Luminespib] + CS(=O)(=O)CCNCc1ccc(-c2ccc3ncnc(Nc4ccc(OCc5cccc(F)c5)c(Cl)c4)c3c2)o1 [Lapatinib] (partner 2 µM)

[0.464, 0.719, 1.08]

====

Exercise: for every item that follows, state its recorded relative viability.
# System: A-427
# procedure_text: relative viability (nuclei count vs DMSO), 5 days (fraction); higher = more cells survive
# condition_context: first compound 0.6325 µM
Give bare numbers.

compound	relative viability
Cc1csc(=NC2CCCCC2)n1/N=C/c1ccc(O)c(O)c1O [MIM1] + O=C(CCCCCCC(=O)Nc1ccccc1)NO [Vorinostat] (partner 1 µM)	0.663
Cc1csc(=NC2CCCCC2)n1/N=C/c1ccc(O)c(O)c1O [MIM1] + Nc1ncn([C@H]2C[C@H](O)[C@@H](CO)O2)c(=O)n1 [Decitabine] (partner 2 µM)	0.578

Reported relative viability for A-427, given CN1CCN(CCOc2cc(OC3CCOCC3)c3c(Nc4c(Cl)ccc5c4OCO5)ncnc3c2)CC1 [Saracatinib] + CS(=O)(=O)N1CCN(Cc2cc3nc(-c4cccc5[nH]ncc45)nc(N4CCOCC4)c3s2)CC1 [Pictilisib] (partner 1 µM) ? 0.767

====

Exercise: for every item that follows, state its recorded relative viability.
# System: NCI-H1915
# procedure_text: relative viability (nuclei count vs DMSO), 5 days (fraction); higher = more cells survive
# condition_context: first compound 0.2 µM
Numbers only.

molecule	relative viability
CN1CCN(CCOc2cc(OC3CCOCC3)c3c(Nc4c(Cl)ccc5c4OCO5)ncnc3c2)CC1 [Saracatinib] + CS(=O)(=O)N1CCN(Cc2cc3nc(-c4cccc5[nH]ncc45)nc(N4CCOCC4)c3s2)CC1 [Pictilisib] (partner 1 µM)	0.79
CCNC(=O)c1noc(-c2cc(C(C)C)c(O)cc2O)c1-c1ccc(CN2CCOCC2)cc1 [Luminespib] + Cc1nc(NC(=O)N2CCC[C@H]2C(N)=O)sc1-c1ccnc(C(C)(C)C(F)(F)F)c1 [Alpelisib] (partner 2 µM)	1.04
CN1CCN(CCOc2cc(OC3CCOCC3)c3c(Nc4c(Cl)ccc5c4OCO5)ncnc3c2)CC1 [Saracatinib] + Nc1ncn([C@H]2C[C@H](O)[C@@H](CO)O2)c(=O)n1 [Decitabine] (partner 2 µM)	0.264

Let us examine a further case.
Request the reported relative viability associated with CCNC(=O)c1noc(-c2cc(C(C)C)c(O)cc2O)c1-c1ccc(CN2CCOCC2)cc1 [Luminespib] + C[C@]1(O)C[C@@H](c2nc(-c3ccc4ccc(-c5ccccc5)nc4c3)c3c(N)nccn32)C1 [Linsitinib] (partner 1 µM) 1.05

====

# Test system: NCI-H441
# procedure_text: relative viability (nuclei count vs DMSO), 5 days (fraction); higher = more cells survive
# condition_context: first compound 0.6325 µM
observable: relative viability
Give bare numbers.

Example entries and their recorded answers appear below.
molecule	assay_value
Cc1csc(=NC2CCCCC2)n1/N=C/c1ccc(O)c(O)c1O [MIM1] + CC(=O)Nc1cccc(-n2c(=O)n(C3CC3)c(=O)c3c(Nc4ccc(I)cc4F)n(C)c(=O)c(C)c32)c1 [Trametinib] (partner 0.02 µM)	0.409
CN1CCN(CCOc2cc(OC3CCOCC3)c3c(Nc4c(Cl)ccc5c4OCO5)ncnc3c2)CC1 [Saracatinib] + C[C@@H](Oc1cc(-c2cnn(C3CCNCC3)c2)cnc1N)c1c(Cl)ccc(F)c1Cl [Crizotinib] (partner 1 µM)	0.798

Report relative viability for each item below.
1. Cc1csc(=NC2CCCCC2)n1/N=C/c1ccc(O)c(O)c1O [MIM1] + Nc1ncn([C@H]2C[C@H](O)[C@@H](CO)O2)c(=O)n1 [Decitabine] (partner 2 µM)
2. Cc1csc(=NC2CCCCC2)n1/N=C/c1ccc(O)c(O)c1O [MIM1] + CC(=O)c1c(C)c2cnc(Nc3ccc(N4CCNCC4)cn3)nc2n(C2CCCC2)c1=O [Palbociclib] (partner 0.5 µM)

0.252
0.266

Request the reported relative viability associated with CN1CCN(CCOc2cc(OC3CCOCC3)c3c(Nc4c(Cl)ccc5c4OCO5)ncnc3c2)CC1 [Saracatinib] + Cc1cc(Nc2cc(N3CCN(C)CC3)nc(Sc3ccc(NC(=O)C4CC4)cc3)n2)n[nH]1 [Tozasertib] (partner 0.1 µM) 0.728

Cited source: the supplement of paper PMC10307832
